# Tested Target: T1, human PRLR on cells (endogenous on T47D, T47D#11, MCF7); introduced in HEK293/hPRLR/STAT5-Luc, 293/hPRLR, … (human, UniProt P16471 25-622)
# T1 sequence: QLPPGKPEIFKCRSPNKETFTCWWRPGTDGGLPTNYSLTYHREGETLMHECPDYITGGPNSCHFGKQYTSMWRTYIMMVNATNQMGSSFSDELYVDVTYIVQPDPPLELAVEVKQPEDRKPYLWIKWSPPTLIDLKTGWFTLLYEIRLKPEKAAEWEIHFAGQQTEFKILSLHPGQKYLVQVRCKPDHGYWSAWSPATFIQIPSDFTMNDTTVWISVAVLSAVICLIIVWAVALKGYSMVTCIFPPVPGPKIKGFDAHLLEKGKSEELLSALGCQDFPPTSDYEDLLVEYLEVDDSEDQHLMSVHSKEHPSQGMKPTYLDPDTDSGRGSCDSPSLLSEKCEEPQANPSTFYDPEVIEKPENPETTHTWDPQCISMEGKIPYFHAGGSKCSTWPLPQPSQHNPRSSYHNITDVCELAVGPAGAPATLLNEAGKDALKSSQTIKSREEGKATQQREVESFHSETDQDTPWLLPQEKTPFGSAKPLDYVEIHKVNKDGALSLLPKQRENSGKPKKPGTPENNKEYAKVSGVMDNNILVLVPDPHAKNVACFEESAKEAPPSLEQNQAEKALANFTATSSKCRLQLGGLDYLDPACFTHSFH
# Assay Protocol: cell-based or functional assay
Readout: Percent Blocking at 100 nM Antibody (STAT5-Luc reporter) (%)
Record the value in %, omitting the unit from your answer.

- Binder: "H1H6795P (antibody, human IgG1, V domains shown, human IgG1 Fc (H1H)) VH: QVQLVQSGAEVKKPGASVKVSCKASGYTFGTSGITWVRQAPGQGLEWMGWSSAYNGKTDYAQKFQDRVTMTTDTSTTTGYMEMRSLTSDDTAVYYCTTVVRRPFDFWGQGTLVTVSS VL: DIQMTQSPSSLSASVGDRVTITCRASQDINNFLAWFQQKPGKAPKSLIYAASSLQSGVPSKFSGGGSGTDFALTISSLQPEDFATYYCQQYSSYPITFGQGTRLEIK"
  Uom: "%"
  Assay Value: 0
- Binder: "H1H6793P (antibody, human IgG1, V domains shown, human IgG1 Fc (H1H)) VH: EVQLVESGGGLVQPGGSLRLSCAASGFSFSIYAMSWFRQAPGKGLEWVSAINGRGDGTHYADSVKGRFTISRDNSKTTLYLQMSSLRAEDTAVYYCAKPVMSTNGFDIWGQGTMVTVSS VL: DIQMTQSPSTLSASVGDRVTITCRASQSISSWLAWYQLKPGKAPKLLIYKASNLESGVPSRFSGSGSGTEFTLTISSLQPDDFATYYCQQYNIYWTFGQGTKVEIK"
  Uom: "%"
  Assay Value: 65

As a next step, examine the binder that follows.
Quick check: Percent Blocking at 100 nM Antibody (STAT5-Luc reporter) of H1H6967N (antibody, human IgG1, V domains shown, also called H2M6967N) VH: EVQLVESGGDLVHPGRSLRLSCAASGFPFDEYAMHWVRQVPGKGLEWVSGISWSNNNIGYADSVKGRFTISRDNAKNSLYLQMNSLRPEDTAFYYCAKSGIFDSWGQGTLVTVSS VL: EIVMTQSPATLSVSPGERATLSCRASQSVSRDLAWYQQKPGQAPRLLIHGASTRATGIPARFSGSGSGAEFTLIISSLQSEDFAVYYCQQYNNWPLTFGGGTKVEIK ? 100

Data provenance: patent US20180185504A1
